Target: aromatase (CYP19) (Homo sapiens, UniProt P11511)
Sequence (P11511 whole entry): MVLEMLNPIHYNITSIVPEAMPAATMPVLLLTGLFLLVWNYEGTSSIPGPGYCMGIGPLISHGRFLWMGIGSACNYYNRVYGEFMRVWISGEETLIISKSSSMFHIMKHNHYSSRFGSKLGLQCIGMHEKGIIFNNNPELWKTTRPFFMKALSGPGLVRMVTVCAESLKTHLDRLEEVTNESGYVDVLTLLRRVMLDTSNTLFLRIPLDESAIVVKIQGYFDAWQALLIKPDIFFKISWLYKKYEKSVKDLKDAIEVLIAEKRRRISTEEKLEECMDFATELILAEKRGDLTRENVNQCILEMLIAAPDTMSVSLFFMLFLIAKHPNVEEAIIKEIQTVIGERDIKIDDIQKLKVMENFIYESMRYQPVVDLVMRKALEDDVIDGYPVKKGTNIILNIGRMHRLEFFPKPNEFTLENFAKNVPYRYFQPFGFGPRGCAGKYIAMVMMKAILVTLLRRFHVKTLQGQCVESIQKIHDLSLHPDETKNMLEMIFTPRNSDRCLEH
Experiment: Inhibition of human aromatase coexpressed with P450 reductase at 1 uM by fluorimetry
Conditions: recombinant human aromatase coexpressed with P450 reductase
measurementKind: inhibition at 1 µM (%)
Numbers only; they are read as %.

>  <recordSmiles>
N#Cc1ccc(Cn2cncn2)cc1

>  <inhibition at 1 µM / %>
88

$$$$
>  <recordSmiles>
N#Cc1ccc(-n2ccc3ccncc32)cc1Oc1ccccc1

>  <inhibition at 1 µM / %>
97

$$$$

-- ask Can you share its inhibition at 1 µM? I mean this compound: "N#Cc1ccc(Oc2cccnc2)cc1NC1CCCCC1"
-- reply 33

-- ask # query: inhibition at 1 µM of entry "N#Cc1ccc(Oc2cccnc2)cc1Oc1ccccc1"
-- reply 78

-- ask I have this compound here, "N#Cc1ccc(Oc2cccnc2)cc1Oc1cccc(Cl)c1" , and I need its recorded inhibition at 1 µM.
-- reply 25

-- ask Would you mind telling me what inhibition at 1 µM value was observed for "NC(=O)c1ccc(-n2ccc3ccncc32)cc1" ?
-- reply 60

-- ask Entry under review: "N#Cc1ccc(Oc2cccnc2)cc1F" . Reported inhibition at 1 µM?
-- reply 15

----------
Biological target: aromatase (CYP19) (Homo sapiens, UniProt P11511)
Test: Inhibition of human aromatase coexpressed with P450 reductase at 1 uM by fluorimetry
Conditions: recombinant human aromatase coexpressed with P450 reductase
measurementKind: inhibition at 1 µM (%)
Output spec: scalar in %, unitless text.

>  <recordSmiles>
Clc1ccc(-n2ccc3ccncc32)cc1

>  <systemName>
aromatase (CYP19) (Homo sapiens, UniProt P11511)

>  <scaleUnit>
%

>  <inhibition at 1 µM>
85

$$$$
>  <recordSmiles>
N#Cc1ccc(Oc2cccnc2)c(F)c1

>  <systemName>
aromatase (CYP19) (Homo sapiens, UniProt P11511)

>  <scaleUnit>
%

>  <inhibition at 1 µM>
52

$$$$

-- ask Entry "N#Cc1ccc(Oc2cccnn2)cc1" has what inhibition at 1 µM?
-- reply 1

-- ask For "N#Cc1ccc(Oc2cccnc2)cc1C#N" , what is its reported inhibition at 1 µM?
-- reply 27

----------
Each entry below lists one item and its recorded inhibition at 1 µM value.
Target: aromatase (CYP19) (Homo sapiens, UniProt P11511)
Assay: Inhibition of human aromatase coexpressed with P450 reductase at 1 uM by fluorimetry
Settings: recombinant human aromatase coexpressed with P450 reductase

>  <recordSmiles>
N#Cc1ccc(Oc2ccncc2)cc1

>  <testValue>
53%

$$$$

-- ask Need inhibition at 1 µM of "N#Cc1ccc(Oc2cccnc2)cc1" , thanks.
-- reply 70%

-- ask What measured inhibition at 1 µM goes with "Cc1cc(-n2ccc3ccncc32)ccc1Cl" ?
-- reply 96%

-- ask Can you share its inhibition at 1 µM? I mean this compound: "N#Cc1ccc(Oc2cccnc2)c(Oc2cccc(Cl)c2)c1"
-- reply 89%

----------
Measured pIC50, listed per entry.
Target: UniProtKB P11511
Test: Inhibition of human aromatase coexpressed with P450 reductase by fluorimetry
Here pIC50 is given on a logarithmic scale as minus log10 of the concentration in mol/L.

Examples with answers:
>  <recordSmiles>
N#Cc1ccc(Oc2cccnc2)c(Oc2cccc(Cl)c2)c1

>  <systemName>
UniProtKB P11511

>  <measurementKind>
pIC50

>  <testValue>
6.64

$$$$
>  <recordSmiles>
N#Cc1ccc(Oc2cccnc2)cc1Oc1cccnc1

>  <systemName>
UniProtKB P11511

>  <measurementKind>
pIC50

>  <testValue>
6.52

$$$$

Alright, here's another compound for you.
-- ask Look up pIC50 for this compound: "Cc1cc(-n2ccc3ccncc32)ccc1Cl"
-- reply 7.23

----------
Biological target: UniProt:P11511
Experiment: Inhibition of human aromatase coexpressed with P450 reductase at 1 uM by fluorimetry
Conditions: recombinant human aromatase coexpressed with P450 reductase
Assign yes (1) whenever inhibition at 1 µM does not fall below 80%; assign no (0) whenever it does.

Known results for compounds:
>  <recordSmiles>
Ic1ccc(-n2ccc3ccncc32)cc1

>  <classification>
no (0)

$$$$
>  <recordSmiles>
Cc1cc(-n2ccc3ccncc32)ccc1C#N

>  <classification>
yes (1)

$$$$
>  <recordSmiles>
CN1CCN(c2cc(Oc3cccnc3)ccc2C#N)CC1

>  <classification>
no (0)

$$$$
>  <recordSmiles>
COc1ccc(Oc2cc(Oc3cccnc3)ccc2C#N)cc1

>  <classification>
yes (1)

$$$$
>  <recordSmiles>
N#Cc1ccc(-n2ccc3ccncc32)cc1

>  <classification>
yes (1)

$$$$
>  <recordSmiles>
N#Cc1ccc(Oc2cccnc2)cc1NCc1ccccc1

>  <classification>
no (0)

$$$$

Please examine the following record next.
-- ask State whether the measured inhibition at 1 µM reaches 80%, counting equality as reaching it, for "Brc1ccc(-n2ccc3ccncc32)cc1"
-- reply no (0)

Data provenance: ChEMBL document CHEMBL1955805
